Biological target: hemagglutinin of A/Vietnam/1203/04 (H5N1) (influenza A virus A/Vietnam/1203/04 (H5N1))
Test: cell-based or functional assay
Listed next: entries and their corresponding IC50, neutralisation of retroviral pseudotypes.
Kindly format the answer as number then unit.

FLD122 (antibody, V domains shown) VH: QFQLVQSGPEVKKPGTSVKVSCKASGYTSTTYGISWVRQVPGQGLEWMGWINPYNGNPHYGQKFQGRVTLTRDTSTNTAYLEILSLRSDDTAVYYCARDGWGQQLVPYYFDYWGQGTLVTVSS VL: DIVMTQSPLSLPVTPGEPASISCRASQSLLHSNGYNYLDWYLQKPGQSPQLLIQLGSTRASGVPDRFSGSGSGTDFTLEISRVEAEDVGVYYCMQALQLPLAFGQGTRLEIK : 0.005 mg/L
FLD93 (antibody, V domains shown) VH: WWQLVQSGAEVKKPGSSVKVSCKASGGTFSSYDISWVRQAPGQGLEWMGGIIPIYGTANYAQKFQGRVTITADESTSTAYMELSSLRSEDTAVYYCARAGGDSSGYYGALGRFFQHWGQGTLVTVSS VL: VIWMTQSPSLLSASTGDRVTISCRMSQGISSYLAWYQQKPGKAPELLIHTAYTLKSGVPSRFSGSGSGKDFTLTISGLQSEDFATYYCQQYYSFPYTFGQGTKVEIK : 0.048 mg/L

// next item, IC50, neutralisation of retroviral pseudotypes requested
Query (binder): FLA3.14 (antibody, V domains shown) VH: EVQLVQSGAEVKKPGESLKISCQASGYSFTSRWIGWVRQMPGKGLEWVGFIYPSDSDVRYSPSFRGQVTISADKSISTAYLQWSSLKASDTAMYFCARLGGNKDYGDYLWYFDLWGRGALVTVSS VL: EIVMTQSPDTLSVSPGERATLSCRASQSVNRRLAWYQQKPGQAPRLLIHDASTRATGIPARFSGSGSGTEFTLTISSLQSEDFAVYYCQQYDNWLSFGQGTRLEIK ; field requested: IC50, neutralisation of retroviral pseudotypes
0.065 mg/L
